# protocol: protease stability score; higher = more stable; yeast display proteolysis, trypsin and chymotrypsin
We use 0.8 as the dividing line for protease stability score: on or above the line is criterion met, below is criterion not met.

Record excerpt, results attached:
[
  {
    "chain_sequence": "DDEKRWLEELWKDIQRADETGDEEHFLHLADPHVRFHVNGRDVHGMELVAHILLKWLNEIRIKDFRLKDMRMFENHLRVDGSIVLIVNGQEIETDMILRFEVVNGRIKDREIDIR",
    "category": "criterion met"
  },
  {
    "chain_sequence": "DELDRISTRLADLFIHLVETGNWEFLKELLDPDVRMIIGDFELVGRETIIEFFEKLERHLGVDHSEIVIERRHSQGEKAELHTRLIVRVNGRKRVIDTRLELHWVDGRLKEINIHEH",
    "category": "criterion met"
  },
  {
    "chain_sequence": "DELERLVEDLVRILLEILLTGDWKILMRLMDPDARFIYGDKQRVGMEEVIKELHRLKEEIRINSIEIKRVEIQGDWVHVDGRSDVEVGDKRRSTEVRYHFHVFNGRMRRINIEVE",
    "category": "criterion met"
  },
  {
    "chain_sequence": "DEEDEKTRRMAELWSKWKSTGDEELFHHFADPRTRLEIGDKKYHGRDLISKIWFKERKEIRSDINIKDVDVFNGVAILHGTLILEINGQRDSIDVTFHIVLINGRIHEVRVEWR",
    "category": "criterion not met"
  }
]

Kindly review the next sequence as well.
Reported protease stability score at or above 0.8? DELKRDADHAVELLHRVIHTGDEDTFVELIDPHVRLDFNGRELIGWEEVRKLMRDLGWEQIHYEIEDIKVYNGQVEIHSRVNINGRTHQSHYHIEKVNGRWILRHVEYE
criterion met

###

# protocol: protease stability score; higher = more stable; yeast display proteolysis, trypsin and chymotrypsin;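 note: relative to predicted unfolded state with 0 unfolded-like and 1 meaning tenfold more protease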
We use 1 as the dividing line for protease stability score: on or above the line is criterion met, below is criterion not met.

[
  {
    "chain_sequence": "DEEHRHAHWLLNVLTKAMITGDESLMEHLLDPNARLIQGEFELVGRERIIDWFHHIRTHEVRIHVEHFDVVNGKAIIFGHVTVDGTVNGQRREFRFDQTYFSSKIDGKWVIESLEME",
    "category": "criterion met"
  }
]

Reported protease stability score at or above 1? DEDEKLKQEWMELFLESLRTGDWRILRKLIDPNVRLEVGDKQVIGREKVLEILKKILDEIRNQDVKLHDYTEINGRIYLDVELDLQQGDKRITLKIHTVLEKYDGRWIIRTFRIE
criterion met

Reported protease stability score at or above 1? SEEEEELKRALKIIIEVMLTGDEKTHHELADPHARLEIHQGNYIEHQHGREIVDKVLRDWIEKLGIDHLHLERVDKQGNKLFVHVHVKVGDKHSKLDIVASKVDGRWVLHEVRIIDE
criterion met

Reported protease stability score at or above 1? DEELKALEDLSKKEIEAHLTGDEDTLVQLADPNMKILYNGREFHGWNVWKKISSKMIEEMRLRRVELEHVHVINGQIDSHGILDVEVNGRRVKERMHIVMLKVNGRWLIHSVEYR
criterion met

Reported protease stability score at or above 1? DEERKFWEEVMRLMREAFETGDEHLIERMADPHVRINIIVDGREIEFHGWEILVDLMKFVKGMQFTLKDSDIINGVLKIDGKTRQGDKITDVEIEFHVVNGRVKEIHVHIL
criterion met

Reported protease stability score at or above 1? DEREHSVKLAFDKFLEDLHTGNEEMLDRFLDPHVRYHVGDKERHGRENFSRHVAKFLTEYGFKHLHLHMKDWEVQGDKATIEGHVNMHFNGRLIRHNTHLVIWKVNGRWLLESSEER
criterion not met

Reported protease stability score at or above 1? DEDEKMSHEASRVTLQVLITGDEEAMHRLLDPNARMDYGDKQFHGWEEVSKLTTELLTRLGVDHYHMNDERIYGEKLDLDLTIHVNGRNRKFIIIVRKINGRWLIDSMTFK
criterion not met

###

Record form. Attribute: protease stability score. Fill in for each entry.
# protocol: protease stability score; higher = more stable; yeast display proteolysis, trypsin and chymotrypsin;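 note: relative to predicted unfolded state with 0 unfolded-like and 1 meaning tenfold more protease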
Answers are plain numbers.

The following sequences have reported results that may help.
[
  {
    "chain_sequence": "SEDEHSWRLAREEFRKTNETGNEEDLSRLFDPHVRIDINGREIHGRDEASELFHKLGIDHIRWRVKRVKIFDGRMENRGELILIFNGREHRYDITVISSKIDGQWSVESMHYK",
    "assay_value": 0.534
  },
  {
    "chain_sequence": "DEEEEHLRKIMEEMTRANETGDFESWARNADPDYQLNVGDKRKHGREDWQEDLKRVDHLRLEVRIRRMRDVDGRIEVVGDLIIFIKVGEYEFESHSKVIIYIIKINGRWFIKSIEFL",
    "assay_value": 1
  },
  {
    "chain_sequence": "DDDAIKRFHEQVDNEQHNNEEEQEKNVDPNATVNVGDKTYHGREKWREVVKRENEEMRVKYQHVTFRRHPGRVIVRFRIVNDHNGKPTETDVNANYQMHNGRIRQVNRRTDG",
    "assay_value": 0.225
  },
  {
    "chain_sequence": "SEDEEETRESLELLMRSLKTGDEHQIRRMFDPDALTVIDGREFHGRERATHAMREWKREIRIKEIRIRDWKTQGEKVHLDIEVVTEVNGVEDRREVKLLLIKVNGRWFIHSIHIH",
    "assay_value": 1.43
  },
  {
    "chain_sequence": "DKHEEALEIAIRLLELVWKTGDFEDFVRLLDPHTRFHYGDKDFIGMELWLRLHEHLGITQIEIRSTHHHRIHAQGDKVILDIEIEGIIGDKETRHRIKLVVVKVDGRWKIKEVHIR",
    "assay_value": 1.09
  }
]

Return reported protease stability score values for all items listed beneath this line.
1. DEEERRLHEIAELVVHRLVTGDEDTLNKLFDPNTRFELIFNGQNFELHGREALMEWLQRRRNVREKHEVRRIEYQGDKLHVDGTLIIEYGDKRRESEVDLRIRVVNGRVHTIDLRLK
2. DERDERLTEFLELYFKLWFTGDEDTFAHLADPNTRSVFNGKWIHGMESYSEWVEKHMRHLRFKDMKIRDSRVVDGQIHMNTEVEGEVNGQRYRVETRIILDVIDGRIKEVRLHIH

1: 1.48; 2: 1.24

###

# protocol: protease stability score; higher = more stable; yeast display proteolysis, trypsin and chymotrypsin;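 note: relative to predicted unfolded state with 0 unfolded-like and 1 meaning tenfold more protease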
observed_property: protease stability score

[
  {
    "chain_sequence": "SEDHKQAEEFMHRVAHNVLTGDEEKLDELIDPDARLEIGDKEHHGREIFIEFWRQLRVRDIKIRHWEIIGDKIFIRGEMNGIVDGRTRIFDIIVVMVKINGKWTLKRVEIK",
    "protease stability score": 1.5
  },
  {
    "chain_sequence": "DEDEEIIEKWVKMMLDAAHTGDERIIEENFDPNTRIHVDGQNHHGREHVHELRRRADYIRIILIIRSIRTQGDYVHVKGEIRIRINWNGRELHLEVEVEIIFLKFDGRWHIRSIVSI",
    "protease stability score": 0.889
  },
  {
    "chain_sequence": "DEDEELARQIWELFVRAEETGDEELLEKLIDPHTRLHIGDKVFHGRDAIKHIRKRVDHVKRVHVESIRVFDGRVEIHSRQRWEINGVEVEQKFRFTMQKINGRWIMHDMSIL",
    "protease stability score": 1.79
  },
  {
    "chain_sequence": "DEEQKAADRVNQLHTESMLTGDEDEFKHLADPNTKFLINGVEFHGRDTLHRWLSEIRLHHHHFEVKHLNFYGDFVEVEGHVRLVFHVNGRRIDVSTRVRWIIEKVDGRWYVRQIHIN",
    "protease stability score": 1.68
  },
  {
    "chain_sequence": "DEDTHNASEALEYLWRVIMTGDEEQVERMADPNVRVVFNGKHLHGREWFLRVLLHIRFDRVRIEHIHTQGEKVRTDSKSDIEFDGRRIEVDIEIYIHKINGRWIVKMFIFR",
    "protease stability score": 2.89
  }
]

Proceed to the following item.
The sequence listed as DEDQKAATRFTELLVRLLFTGDEEMWLQLADPRMILDFENHSEHGMKLVVKLLHETIERRGMRIDDMHHTHIEFQGEWVRVHVRVHERIGDKRISVEVEYKSLKVNGRWILHEIHIH has a reported protease stability score of 0.372

###

# protocol: protease stability score; higher = more stable; yeast display proteolysis, trypsin and chymotrypsin;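 note: relative to predicted unfolded state with 0 unfolded-like and 1 meaning tenfold more protease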
Record form. Attribute: protease stability score. Fill in for each entry.

The following sequences have reported results that may help.
[
  {
    "chain_sequence": "HEEEKSRKKEFEEYVRSVKTGDERLLTEMADPNARVHIGDKTLIGRELMHEMWHEQLKQIDVFHDIKTTHSEVQGDKIHMHVVEDIIIGDKRHTIRLRMIAWKFNGKWLVEEVRFE",
    "observed_property": "protease stability score",
    "assay_value": 0.435
  },
  {
    "chain_sequence": "DEDHRLWEEMIRILHDALRTGDEDMLEHLMDPDTRLHVGDKNVHGRRDMKYFWEILGVDRVELVIRSFRLIDGKAEIDGESRFNGVTRRVRLIHNKINGRWLTESIHIH",
    "observed_property": "protease stability score",
    "assay_value": 0.745
  },
  {
    "chain_sequence": "DSLEKHTEDSLRFFLHILRTGDEEELSDLLDPRTRYEFNGKEFHGREQVVEVLIRLAEHIRIEELHVTHVEVYGDKVNSETLLIVDVDGQKRILHTRVLATKVNGKWLFQRIRIV",
    "observed_property": "protease stability score",
    "assay_value": 2.17
  },
  {
    "chain_sequence": "SEDERVAFELVVIWSEALITGDEHTSIELLDPNTRIIFNGRDRHGRTFLQEWMKQLRVERIRIHIHHINLQGDKLKVFSELRFVGNVDGVRDEIKTEVVVFLDKIDGRWIVSHIDVH",
    "observed_property": "protease stability score",
    "assay_value": 2.22
  },
  {
    "chain_sequence": "DESEKMFKEIWRLLIESHRTGDEDSLERLADPHARMDFNGVEHHGRRELVRILSEHYKRVDHIHLIIRDMDVQGNKVTMRGELVLEFNGRRQTHDVTIILSKVDGVWYLHSIIVR",
    "observed_property": "protease stability score",
    "assay_value": 1.53
  }
]

Return reported protease stability score values for all items listed beneath this line.
1. DEHHKHLHHLAEHTLRLIATGDEDRFSDLADPHTRLRVNGVDVIGRELVIELWKRMLEQIRITDVHVKRSVVIDGVVHQDTELHSTVGDKRFELKTKSHIFIINGRIHMVEIQHE
2. DERTEFLERMSEHLTHVWHTGNEELWNRLADPRARFIEFVDGKKNHHHGMEVASNRIKKWRKDLGIDHVRLKEERVQGNKVELHLQVDINGVEQTVEIYNSIVDGRFESLEVNIHTR

1. -0.28
2. 0.074

Return reported protease stability score values for all items listed beneath this line.
1. SEDERDAHRILDEEFEAIWTGDEHFLRELLDPNVQMDFNGVKLHGRHAFREIFRRFDWVDRIRLEEIRIFNGKVEIHIREDGFIDGRRTNTTSVFFMEKVDGRWKVRKMRIG
2. DESEETAVRMFKHWIRMIETGDEDSLEELADPNVRLEVNGQEVHGRELFLRFFLEMRIKRVRLRHIETQGEKLIIHGELDGEINGRRQETRVIIIVRKVDGKWIIKSIRIE
3. SEKEEDLRRAEQDFLREMETGDEHLTSELADPHVRIDIGDKVYHGREFWSKFVRRVKNATIQITHRQYQGDKLWLDGILNVDGRNIRMLVIIHKIDGVWVFKYVDIH
4. SDDEEEVLRLMDHILHALWTGDWKHLEENMDPNVRSHINGQDVHGMERVVEFILRELKELRFEHLHIEHVEIIGNKATLHYRVDGHINGRRINRRVHLEVTMVNGRVKQVIFFNE
5. DEEKEIHEELVRIWNHAVNTGNEELMERLMDPNVRLLYNGVDLIGMEHAREFNKRFDHLKIRRNEIKSFRVQGNKIDSDTHVDVELNINGKTLRVQQDQHWVVLKVDGRWYIHKIEIL
6. DELHEERERASEVARRWVLTGNEEMLVQLADPEVRLHFNGVDFVGRETIHETLRRIHELWGVDRIEVRLKTVHIYDGVVDVHVDLHVGDKEIRDDIHLKKFNGRWEMTTRHVH
7. THEEHFDERVARHLHENFLTGNEDIFEHLADPHTRIIIVQGDKMIHFHGWEWFAMKMLEDLHRIKGIRITLRHINIQGDKWILEMKVDIGDKELETEIIIHVINGKIESVRIIIR
8. DTEERLLHEMLRYLLEWFITGDEELFARLADPNTRTNVNGRHFHGREEMARLLEKWWRDFGVKHVHIEHTRVQGDYLHIDTRLHIGDKDLHVHFKLLVIDGRIRSLEIIIR

1.66
2.76
2.27
2.08
0.799
0.348
1.35
0.689

Return reported protease stability score values for all items listed beneath this line.
1. SEIHDLITTMSRLFWDVIRTGDFEALEKLLDPHTRFEFLIGDKTEEYVGRHNVVRAIMDIWERLGIDHMHLKNVRYQGEKSDIDTEMHFDGRTFDTKIIIVVIDGKLHNVSIEFR
2. DEEHEQLERLARDYMHSTETGDEESIRRFFDPHTRYDIDGKESHGWEMIKHWMEEWRIDSVTIHSIHRINGVAHIDVTVHGEIGDKQTTFRVIIDLVIVNGKVHEIRIIFE

1.39
-0.086

Return reported protease stability score values for all items listed beneath this line.
1. DKVEDDLREFARLFVEYMETGDEDKVSKLMDPSMRIEIHINGKDIKYHGREELNRWRSEEMKRVDHEKWHHKHIRVIGDKVDIDFRRVEHVGDKHLVFQVHIELFVINGKLHTVIIRIE
2. DEDERDTREAIELFRESIRTGDERILEEMVDPNVRLEFNGKHHHGMEHLVKWFSFLAKHWRVDIDLHHLEVQGDKVHSDERIDLVQGDKIVHTEVKIIFRKINGRWLMHKIRIN
3. DEIREEMEKVFRVFIHNMFTGDFEKLEELADPNARSKVDGVDDHGMHKFLRHWLHHVRRYGMKVEFEVHHIDVQGDKVQIDTRIVIDYNGRRFEWKSELIAVKIDGQWLIKRIIIH
4. SEEEEHAKHIARLWMESFYTGDEHHMSHLLDPNVRIIIEIGDKSDEFHGREETVKWVRKYLREMRLKNFEIHDQRVFNGVANDDTIVHGNVDGRERNIRTHIIIVVVNGRVKEVKVEVK

1. 1.53
2. 1.4
3. 1.6
4. 1.6

The sequence listed as DSEHEEAKTFVKELDKSIETGDEEKLKELLDPHTLIIVGDKFRIGWEWMANKISQIRIHMETRIRDVEHQGDKMIVHTDVRIDINVDGKKIHEQRDIHLIIRKVNGQWILKEIEIR has a reported protease stability score of 1.36
